These measurements were taken from paper PMC11533140.

systemTested: PI3Kα (Homo sapiens)
assayComment: in vitro PI3Kα kinase inhibition assay
Type: biochemical
testSettings: mean of three independent experiments; read-out: IC50 against PI3Kα
measurementKind: IC50 (µM)

For orientation, consider the following solved cases.
compound | numericResult
N#Cc1c(-c2ccc(O)cc2)nc(N2CCOCC2)nc1N1CCOCC1 [Compound 17f] | 0.473
N#Cc1c(-c2cnc(N)nc2C(F)(F)F)nc(N2CCOCC2)nc1N1CCOCC1 [Compound 17p] | 0.0324
CCOC(=O)C1CCN(c2cc(-c3cnc(N)cc3C(F)(F)F)nc(N3CCOCC3)n2)CC1 [Compound 12a] | 2.29

(P) CCOC(=O)C1CCN(c2nc(-c3cnc(N)cc3C(F)(F)F)nc(N3CCOCC3)n2)CC1 [Compound 12f]
(Q) N#Cc1c(-c2cnc(N)cc2C(F)(F)F)nc(N2CCOCC2)nc1N1CCOCC1 [Compound 17m]
(R) N#Cc1c(-c2ccncc2)nc(N2CCOCC2)nc1N1CCOCC1 [Compound 17j]
// query Order the 3 compounds from highest to lowest IC50. Reply format: the labels, ordered as requested.
// result R, P, Q

----------
assayComment: pharmacokinetics in SD rats
Type: in vivo
testSettings: rat, plasma; female SD rats, 2.5 mg/kg iv
measurementKind: half-life (min)
Please reply with the bare figure in min and do not write the unit itself.

The reported value for N#Cc1c(-c2cnc(N)nc2C(F)(F)F)nc(N2CCOCC2)nc1N1CCOCC1 [Compound 17p] in terms of half-life is 167

----------
systemTested: PI3Kα (Homo sapiens)
assayComment: in vitro PI3Kα kinase inhibition assay
Type: biochemical
testSettings: Figure 5 activity bins; read-out: IC50 range in SAR figure (PI3Kα)
pIC50: −log10 of the molar value.
measurementKind: pIC50

For orientation, consider the following solved cases.
molecule | pIC50
CNc1ncc(-c2nc(N3CCOCC3)nc(N3CCOCC3)c2C#N)cn1 [Compound 17o] | 6.52 to 7.52
N#Cc1c(-c2cncnc2)nc(N2CCOCC2)nc1N1CCOCC1 [Compound 17n] | 6.10 to 6.40

The value of pIC50 recorded for N#Cc1c(-c2ccc(N)nc2)nc(N2CCOCC2)nc1N1CCOCC1 [Compound 17k] when tested on PI3Kα (Homo sapiens) reads 6.52 to 7.52

The value of pIC50 recorded for N#Cc1c(-c2ccc(N)cc2)nc(N2CCOCC2)nc1N1CCOCC1 [Compound 17h] when tested on PI3Kα (Homo sapiens) reads 6.10 to 6.40

The value of pIC50 recorded for N#Cc1c(-c2cnc(N)nc2C(F)(F)F)nc(N2CCOCC2)nc1N1CCOCC1 [Compound 17p] when tested on PI3Kα (Homo sapiens) reads 6.52 to 7.52

The value of pIC50 recorded for N#Cc1c(-c2cccc3[nH]ncc23)nc(N2CCOCC2)nc1N1CCOCC1 [Compound 17b] when tested on PI3Kα (Homo sapiens) reads 6.52 to 7.52

The value of pIC50 recorded for N#Cc1c(-c2ccc(O)cc2)nc(N2CCOCC2)nc1N1CCOCC1 [Compound 17f] when tested on PI3Kα (Homo sapiens) reads 6.10 to 6.40

The value of pIC50 recorded for Cc1cc(N)ncc1-c1nc(N2CCOCC2)nc(N2CCOCC2)c1C#N [Compound 17l] when tested on PI3Kα (Homo sapiens) reads 6.10 to 6.40

The value of pIC50 recorded for N#Cc1c(-c2cnc(N)cc2C(F)(F)F)nc(N2CCOCC2)nc1N1CCOCC1 [Compound 17m] when tested on PI3Kα (Homo sapiens) reads 6.52 to 7.52

----------
assayComment: pharmacokinetics in SD rats
Format: in vivo
testSettings: rat, plasma; male SD rats, 2.5 mg/kg iv
measurementKind: half-life (min)
Please reply with the bare figure in min and do not write the unit itself.

The reported value for N#Cc1c(-c2cnc(N)nc2C(F)(F)F)nc(N2CCOCC2)nc1N1CCOCC1 [Compound 17p] in terms of half-life is 40.8

----------
assayComment: liver microsome stability, human
Assay type: in vitro ADME
testSettings: liver microsomes, read-out: CL liver microsomes
measurementKind: microsomal CLint (µL/min/mg)
Please reply with the bare figure in µL/min/mg and do not write the unit itself.

The reported value for N#Cc1c(-c2cnc(N)nc2C(F)(F)F)nc(N2CCOCC2)nc1N1CCOCC1 [Compound 17p] in terms of microsomal CLint is 10.8

----------
systemTested: PI3Kα (Homo sapiens, UniProt P42336)
Sequence (P42336 whole entry): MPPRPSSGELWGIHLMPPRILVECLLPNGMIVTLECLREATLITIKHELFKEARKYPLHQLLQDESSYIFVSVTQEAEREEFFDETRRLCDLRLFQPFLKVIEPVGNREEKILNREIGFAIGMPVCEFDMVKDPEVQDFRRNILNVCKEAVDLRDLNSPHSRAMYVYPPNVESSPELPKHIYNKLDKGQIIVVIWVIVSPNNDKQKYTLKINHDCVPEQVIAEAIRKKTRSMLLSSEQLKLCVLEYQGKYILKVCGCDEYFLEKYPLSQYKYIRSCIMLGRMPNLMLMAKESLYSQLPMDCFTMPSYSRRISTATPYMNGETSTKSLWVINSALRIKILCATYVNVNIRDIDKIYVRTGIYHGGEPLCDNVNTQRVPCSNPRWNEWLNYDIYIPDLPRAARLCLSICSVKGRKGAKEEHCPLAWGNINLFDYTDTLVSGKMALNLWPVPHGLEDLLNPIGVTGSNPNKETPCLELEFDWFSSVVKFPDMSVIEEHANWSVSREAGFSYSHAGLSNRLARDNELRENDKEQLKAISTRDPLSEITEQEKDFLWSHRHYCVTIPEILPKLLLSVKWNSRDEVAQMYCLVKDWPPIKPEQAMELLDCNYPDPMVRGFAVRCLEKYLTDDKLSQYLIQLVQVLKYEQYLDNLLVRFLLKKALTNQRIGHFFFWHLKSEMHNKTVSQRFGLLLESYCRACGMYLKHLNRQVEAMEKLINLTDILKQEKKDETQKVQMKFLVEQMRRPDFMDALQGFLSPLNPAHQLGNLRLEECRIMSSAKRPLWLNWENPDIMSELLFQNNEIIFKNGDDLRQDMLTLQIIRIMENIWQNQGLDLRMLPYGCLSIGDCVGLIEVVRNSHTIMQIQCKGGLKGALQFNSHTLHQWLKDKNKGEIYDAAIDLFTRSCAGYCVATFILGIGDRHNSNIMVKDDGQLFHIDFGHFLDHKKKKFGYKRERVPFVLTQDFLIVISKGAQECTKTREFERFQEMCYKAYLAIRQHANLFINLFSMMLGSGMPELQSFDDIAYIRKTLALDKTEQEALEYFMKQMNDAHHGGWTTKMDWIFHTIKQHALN
Sequence (P27986 whole entry partner): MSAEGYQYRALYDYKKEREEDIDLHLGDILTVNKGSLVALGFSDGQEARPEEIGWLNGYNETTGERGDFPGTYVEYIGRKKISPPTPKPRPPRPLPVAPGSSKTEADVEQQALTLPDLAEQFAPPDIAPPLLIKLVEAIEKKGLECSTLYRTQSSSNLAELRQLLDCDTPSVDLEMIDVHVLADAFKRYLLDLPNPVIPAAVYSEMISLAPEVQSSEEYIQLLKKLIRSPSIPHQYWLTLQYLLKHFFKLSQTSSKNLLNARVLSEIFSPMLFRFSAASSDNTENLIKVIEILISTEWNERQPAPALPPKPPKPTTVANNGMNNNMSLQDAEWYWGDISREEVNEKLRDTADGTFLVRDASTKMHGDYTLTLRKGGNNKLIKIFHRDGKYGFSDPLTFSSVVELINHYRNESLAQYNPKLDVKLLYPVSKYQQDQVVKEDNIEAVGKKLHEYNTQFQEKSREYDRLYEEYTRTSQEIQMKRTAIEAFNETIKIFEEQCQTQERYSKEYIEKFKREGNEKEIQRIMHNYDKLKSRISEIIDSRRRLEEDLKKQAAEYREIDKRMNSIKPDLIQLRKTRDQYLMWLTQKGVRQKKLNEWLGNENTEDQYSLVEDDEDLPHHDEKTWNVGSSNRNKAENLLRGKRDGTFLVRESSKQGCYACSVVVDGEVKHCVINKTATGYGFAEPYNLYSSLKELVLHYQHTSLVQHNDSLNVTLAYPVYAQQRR
assayComment: in vitro PI3Kα kinase inhibition assay
Format: biochemical
testSettings: Table 4; read-out: IC50 PI3Kα (isoform selectivity study)
measurementKind: IC50 (nM)

compound | systemTested | numericResult
N#Cc1c(-c2cnc(N)nc2C(F)(F)F)nc(N2CCOCC2)nc1N1CCOCC1 [Compound 17p] | PI3Kα (Homo sapiens, UniProt P42336) | 30.3

(A) N#Cc1c(-c2cccc(O)c2)nc(N2CCOCC2)nc1N1CCOCC1 [Compound 17e]
(B) CNc1ncc(-c2nc(N3CCOCC3)nc(N3CCOCC3)c2C#N)cn1 [Compound 17o]
// query Form field 'greater IC50' accepts A or B ; which applies? Answer format: the label of the selected item.
// result A
(A: 86.1 nM, B: 34.7 nM)

----------
assayComment: pharmacokinetics in SD rats
Type: in vivo
testSettings: rat, plasma; male SD rats, 10 mg/kg po
measurementKind: Tmax (min)
Please reply with the bare figure in min and do not write the unit itself.

The reported value for N#Cc1c(-c2cnc(N)nc2C(F)(F)F)nc(N2CCOCC2)nc1N1CCOCC1 [Compound 17p] in terms of Tmax is 40.2

----------
assayComment: pharmacokinetics in SD rats
Type: in vivo
testSettings: rat, plasma; male SD rats, 2.5 mg/kg iv
measurementKind: AUC(0-t) (ng·h/mL)
Please reply with the bare figure in ng·h/mL and do not write the unit itself.

The reported value for N#Cc1c(-c2cnc(N)nc2C(F)(F)F)nc(N2CCOCC2)nc1N1CCOCC1 [Compound 17p] in terms of AUC(0-t) is 2690

----------
assayComment: liver microsome stability, human
Format: in vitro ADME
testSettings: liver microsomes, read-out: T1/2 liver microsomes
measurementKind: half-life (h)
Please reply with the bare figure in h and do not write the unit itself.

The reported value for N#Cc1c(-c2cnc(N)nc2C(F)(F)F)nc(N2CCOCC2)nc1N1CCOCC1 [Compound 17p] in terms of half-life is 2.13

----------
assayComment: liver microsome stability, rat
Assay type: in vitro ADME
testSettings: liver microsomes, read-out: T1/2 liver microsomes
measurementKind: half-life (min)
Please reply with the bare figure in min and do not write the unit itself.

The reported value for N#Cc1c(-c2cnc(N)nc2C(F)(F)F)nc(N2CCOCC2)nc1N1CCOCC1 [Compound 17p] in terms of half-life is 38.5

----------
assayComment: pharmacokinetics in SD rats
Type: in vivo
testSettings: rat, plasma; female SD rats, 10 mg/kg po
measurementKind: Cmax (ng/mL)
Please reply with the bare figure in ng/mL and do not write the unit itself.

The reported value for N#Cc1c(-c2cnc(N)nc2C(F)(F)F)nc(N2CCOCC2)nc1N1CCOCC1 [Compound 17p] in terms of Cmax is 4860

----------
assayComment: pharmacokinetics in SD rats
Type: in vivo
testSettings: rat, plasma; female SD rats, 2.5 mg/kg iv
measurementKind: AUC(0-t) (ng·h/mL)
Please reply with the bare figure in ng·h/mL and do not write the unit itself.

The reported value for N#Cc1c(-c2cnc(N)nc2C(F)(F)F)nc(N2CCOCC2)nc1N1CCOCC1 [Compound 17p] in terms of AUC(0-t) is 27400

----------
assayComment: pharmacokinetics in SD rats
Assay type: in vivo
testSettings: rat, plasma; male SD rats, 10 mg/kg po; read-out: F (oral bioavailability)
measurementKind: bioavailability (%)
Please reply with the bare figure in % and do not write the unit itself.

The reported value for N#Cc1c(-c2cnc(N)nc2C(F)(F)F)nc(N2CCOCC2)nc1N1CCOCC1 [Compound 17p] in terms of bioavailability is 17.3

----------
assayComment: pharmacokinetics in SD rats
Format: in vivo
testSettings: rat, plasma; male SD rats, 10 mg/kg po
measurementKind: half-life (h)
Please reply with the bare figure in h and do not write the unit itself.

The reported value for N#Cc1c(-c2cnc(N)nc2C(F)(F)F)nc(N2CCOCC2)nc1N1CCOCC1 [Compound 17p] in terms of half-life is 3.19

----------
assayComment: pharmacokinetics in SD rats
Type: in vivo
testSettings: rat, plasma; female SD rats, 10 mg/kg po; read-out: F (oral bioavailability)
measurementKind: bioavailability (%)
Please reply with the bare figure in % and do not write the unit itself.

The reported value for N#Cc1c(-c2cnc(N)nc2C(F)(F)F)nc(N2CCOCC2)nc1N1CCOCC1 [Compound 17p] in terms of bioavailability is 46.2

----------
Test system: A2780 cells
assayComment: MTT antiproliferative assay, A2780
Type: cell-based
testSettings: Homo sapiens
pIC50: −log10 of the molar value.
measurementKind: pIC50

For orientation, consider the following solved cases.
compound | systemTested | pIC50
N#Cc1c(-c2cnc(N)nc2C(F)(F)F)nc(N2CCOCC2)nc1N1CCOCC1 [Compound 17p] | A2780 cells | 6.07
Nc1cc(C(F)(F)F)c(-c2cc(N3CCOCC3)nc(N3CCOCC3)n2)cn1 [BKM-120, Buparlisib, reference compound] | A2780 cells | 6.39

(P) CNc1ncc(-c2nc(N3CCOCC3)nc(N3CCOCC3)c2C#N)cn1 [Compound 17o]
(Q) N#Cc1c(-c2cnc(N)cc2C(F)(F)F)nc(N2CCOCC2)nc1N1CCOCC1 [Compound 17m]
(R) N#Cc1c(-c2cccc(O)c2)nc(N2CCOCC2)nc1N1CCOCC1 [Compound 17e]
// query Order the 3 compounds from highest to lowest pIC50. Reply format: the labels, ordered as requested.
// result R, P, Q
